assay-system: Solute carrier family 2, facilitated glucose transporter member 1 (Homo sapiens) (UniProt P11166)
Sequence (P11166 whole entry): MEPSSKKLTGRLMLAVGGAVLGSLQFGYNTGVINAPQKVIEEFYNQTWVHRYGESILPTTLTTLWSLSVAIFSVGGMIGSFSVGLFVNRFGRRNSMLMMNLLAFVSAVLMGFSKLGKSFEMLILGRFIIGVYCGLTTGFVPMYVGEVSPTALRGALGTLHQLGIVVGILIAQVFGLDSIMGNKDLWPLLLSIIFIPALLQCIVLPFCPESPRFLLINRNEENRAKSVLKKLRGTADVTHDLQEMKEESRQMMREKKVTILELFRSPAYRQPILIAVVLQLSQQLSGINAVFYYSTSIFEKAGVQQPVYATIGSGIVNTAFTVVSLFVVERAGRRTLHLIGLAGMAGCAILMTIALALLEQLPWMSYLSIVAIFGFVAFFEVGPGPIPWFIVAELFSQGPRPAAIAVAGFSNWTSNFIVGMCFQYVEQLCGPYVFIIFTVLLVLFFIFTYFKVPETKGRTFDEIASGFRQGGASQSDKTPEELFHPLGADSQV
test-description: ST_JUDE_LEISH: Cytotoxicity at 2uM final concentration against transgenic Leishmania Mexicana promastigotes LmGLUT1 that are glucose transport deficient and complemented with the human glucose transporter GLUT1. Activity is measured by DNA content using SYBR green in vitro
Format: functional
reported-endpoint: inhibition (%)
The reply should contain only the number, in %.

Query: Form field: reported inhibition of COc1ccc2nccc([C@@H](O)CN3CCC(NCc4cc5ccccn5n4)CC3)c2c1
Response: 4.35

Query: Form field: reported inhibition of COc1ccc(-c2ccc(NC(=O)c3ccc(C#N)cc3)cc2)cc1CN1CCNCC1
Response: 10.9

Query: Form field: reported inhibition of O=C(Cn1c2ccccc2c(=O)c2ccc(Cl)cc21)Nc1ccc(C(F)(F)F)cc1
Response: -0.52

Query: Form field: reported inhibition of Clc1cccc(CNC2CCN(CC3CCCCC3)CC2)c1
Response: 4.03

Query: Form field: reported inhibition of COc1ccc(NC(=O)c2ccc(-c3nc(-c4cccc(C(F)(F)F)c4)cs3)cc2)cc1N1CCN(C)CC1
Response: 0.87

Query: Form field: reported inhibition of c1ccc(C(c2ccccc2)N2CCN(C(c3cccnc3)c3nnnn3C3CCCC3)CC2)cc1 (stereo not drawn)
Response: 4.64

Query: Form field: reported inhibition of O=C(NCC1CCN(Cc2cccc(F)c2)C1)c1cc(-c2cccc(C(F)(F)F)c2)cs1 (stereo not drawn)
Response: -1.66

Query: Form field: reported inhibition of COc1ccccc1CCN(C)CCN1CCC(NC(=O)c2ccc(-c3ccc(C(F)(F)F)cc3)cc2)CC1
Response: 1.81

Query: Form field: reported inhibition of OCCc1ccc(Nc2nccc(-c3nnc4ccccn34)n2)cc1
Response: 6.85

Query: Form field: reported inhibition of COc1ccc(O)c(Cc2cnc3nc(N)[nH]c(=O)c3c2C)c1
Response: 1.02

Query: Form field: reported inhibition of COc1cc2nc(NCCn3cccn3)nc(NCCc3ccccc3)c2cc1OC
Response: 7.22

Query: Form field: reported inhibition of Cc1cc(NC(=O)Nc2ccc(C#N)cc2)c2ccccc2n1
Response: 1.79

Query: Form field: reported inhibition of O=C(NC1CCN(Cc2ccc3c(c2)OCCO3)CC1)c1ccc(-c2cccc(C(F)(F)F)c2)s1
Response: 3.14

Query: Form field: reported inhibition of COc1cccc(-c2ccc(C(=O)NC3CCN(Cc4ccc(C(C)(C)C)cc4)CC3)s2)c1
Response: 0.02

Query: Form field: reported inhibition of O=C(Nc1ccc(C(F)(F)F)cc1)NC1CCN(c2ccnc3cc(Cl)ccc23)CC1
Response: 6.47

Query: Form field: reported inhibition of Nc1c2c(nc3ccc(NC(=O)CCCc4ccccc4)cc13)CCCC2
Response: 1.07

Query: Form field: reported inhibition of Nc1ncc(-c2ccccc2)cc1-c1cccc2ncccc12
Response: 7.53

Query: Form field: reported inhibition of CCOC(=O)c1ccc(NC(=O)N[C@@H](Cc2ccccc2)C(=O)NC2CCN(Cc3ccc(O)c(OC)c3)C2)cc1 (stereo partly drawn)
Response: -2.58

Query: Form field: reported inhibition of CCN(CC)CCN(Cc1ccc(-c2ccc(C(F)(F)F)cc2)cc1)C(=O)Cn1c(CCc2cc(F)ccc2F)nc(=O)c2ccccc21
Response: 1.25

Query: Form field: reported inhibition of CCCc1ccc(C(=O)N2C(c3nccs3)C(C(N)=O)CC2(CC(C)C)C(=O)O)cc1 (stereo not drawn)
Response: 1.38

Query: Form field: reported inhibition of O=C(Nc1ccc(-c2ccc(-c3nc4ccccc4[nH]3)s2)cc1)Nc1ccc(Cl)c(Cl)c1
Response: 9.56

Query: Form field: reported inhibition of O=C(c1cccc(-c2cccc(-c3nc4cc(C(F)(F)F)ccc4[nH]3)c2)c1)N1CCCCC1CN1CCC(O)C1 (stereo not drawn)
Response: -0.81

Query: Form field: reported inhibition of COc1ccc(C(=O)CCC(=O)N(Cc2ccc(-c3ccc(CNCc4cccnc4)cn3)cc2)C2CCN(Cc3ccccc3)CC2)cc1F
Response: 3.47

Query: Form field: reported inhibition of CCCc1cc(=O)[nH]c(-n2nc(C)cc2NC(=O)CC(c2ccccc2)c2ccccc2)n1
Response: -2.15

Query: Form field: reported inhibition of O=C(N[C@H]1CCN(CCc2ccc(O[C@H]3CCNC3)c(Cl)c2)C1)c1ccc(Cl)c(Cl)c1
Response: 1.64

Query: Form field: reported inhibition of O=S(=O)(ON=C1CCc2ccccc21)c1ccc(Cl)cc1
Response: 1.95

Query: Form field: reported inhibition of CN1C(=CC(=O)NC(=O)c2ccccc2)C(C)(C)c2ccccc21
Response: 0.52

Query: Form field: reported inhibition of O=C(Cn1c(CCc2cccc(F)c2F)nc(=O)c2cccnc21)N(Cc1ccc(-c2ccc(C(F)(F)F)cc2)cc1)C1CCN(C2CCSCC2)CC1
Response: 3.24

Query: Form field: reported inhibition of Nc1ccc(-c2ccc(NC(=O)Nc3ccccc3)cc2)cn1
Response: 2.95

Query: Form field: reported inhibition of O=S(=O)(NCCN1CCCC1)c1cccc(-c2ccc(CNC3Cc4ccccc4C3)cc2)c1
Response: 30.3

Query: Form field: reported inhibition of N=C(Nc1ccccc1)Nc1cccc(Cc2ccc([N+](=O)[O-])cc2)n1
Response: 5.43

Query: Form field: reported inhibition of CCCOc1ccc(C(=O)Nc2nonc2-c2ccc(OC)c(OC)c2)cc1
Response: 8.69

Query: Form field: reported inhibition of O=C(NCCCCN1CCC(c2ccc([N+](=O)[O-])cc2)CC1)c1ccc(NC(=O)c2ccc(Cl)cc2)cc1
Response: 4.18

Query: Form field: reported inhibition of COc1ccccc1C1CCN(C2CCC(NC(=O)c3cc4cc(C(C)C)ccc4[nH]3)CC2)CC1 (stereo not drawn)
Response: -0.19

Query: Form field: reported inhibition of Cc1cc(N[C@@H](Cc2ccccc2)C(=O)NCc2cccs2)nc(NCCc2ccccn2)n1
Response: 6.58

Query: Form field: reported inhibition of COc1cc(Br)ccc1N1CCN(CCCCNC(=O)c2ccc(NC(=O)c3ccc(Cl)cc3)cc2)CC1
Response: 2.1

Query: Form field: reported inhibition of CC1(C)NC(N)=NC(=N)N1OCCSc1ccc(Cl)c(Cl)c1
Response: 5.92

Query: Form field: reported inhibition of Cc1cc(NC2CCN(CC3CCCCC3)C2)nc(Nc2ccc(Br)cc2)n1 (stereo not drawn)
Response: -0.39
